target: Protein kinase C beta type (Homo sapiens) (UniProt P05771); details: at 1 µM
Sequence (P05771 2-671 limits assumed): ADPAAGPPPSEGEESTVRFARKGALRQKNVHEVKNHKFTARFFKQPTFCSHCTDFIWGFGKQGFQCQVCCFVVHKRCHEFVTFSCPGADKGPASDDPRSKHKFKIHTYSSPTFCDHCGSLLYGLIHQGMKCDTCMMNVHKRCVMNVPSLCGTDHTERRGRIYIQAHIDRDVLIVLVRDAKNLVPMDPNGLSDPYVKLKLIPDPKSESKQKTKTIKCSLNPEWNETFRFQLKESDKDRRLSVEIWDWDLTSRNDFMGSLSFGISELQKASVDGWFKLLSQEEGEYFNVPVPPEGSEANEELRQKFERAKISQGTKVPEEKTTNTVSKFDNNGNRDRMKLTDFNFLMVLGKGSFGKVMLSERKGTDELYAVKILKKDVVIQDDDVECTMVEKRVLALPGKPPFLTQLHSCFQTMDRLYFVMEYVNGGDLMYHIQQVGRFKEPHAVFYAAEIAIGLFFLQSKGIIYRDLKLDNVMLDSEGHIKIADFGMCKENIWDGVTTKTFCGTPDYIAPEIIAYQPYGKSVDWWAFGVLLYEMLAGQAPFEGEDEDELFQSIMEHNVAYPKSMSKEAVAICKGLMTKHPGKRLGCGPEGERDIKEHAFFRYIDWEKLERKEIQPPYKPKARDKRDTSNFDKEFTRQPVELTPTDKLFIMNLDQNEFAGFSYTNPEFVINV
measurement-kind: residual activity (%)
Reply with just the number (in %).

Record excerpt, results attached:
# compound, measurement-kind, measurement
rows = [
    ("C[S+]([O-])c1ccc(-c2nc(-c3ccc(F)cc3)c(-c3ccncc3)[nH]2)cc1 (centres undefined)", "residual activity", 101),
    ("O=C1Nc2ccc3ncsc3c2/C1=C/c1c[nH]cn1", "residual activity", 55),
    ("CC(C)(C)c1cc(C=C(C#N)C#N)cc(Br)c1O", "residual activity", 106),
    ("O=C1NC(=O)c2c1c1c3ccccc3n3c1c1c2c2ccccc2n1C1CCC3O1", "residual activity", 95),
    ("CCn1cnc2c(Nc3cccc(Cl)c3)nc(N[C@@H]3CCCC[C@@H]3N)nc21", "residual activity", 98),
    ("COc1cc(OC)c(/C=C2\\C(=O)Nc3ccccc32)c(OC)c1", "residual activity", 105),
    ("COc1cc2ncnc(Nc3ccc(OCc4ccccc4)cc3)c2cc1OC", "residual activity", 123),
    ("CCc1nc(-c2ccc(OC)cc2)[nH]c1-c1ccncc1", "residual activity", 127),
]

Please look at the following compound next.
Please indicate residual activity recorded for `COC(=O)[C@@]1(O)C[C@H]2O[C@]1(C)n1c3ccccc3c3c4c(c5c6ccccc6n2c5c31)C(=O)NC4`
53

* * *

Overview of recorded residual activity for various compounds
target: Ephrin type-B receptor 4 (Homo sapiens) (UniProt P54760); conditions: at 10 µM
Sequence (P54760 whole entry): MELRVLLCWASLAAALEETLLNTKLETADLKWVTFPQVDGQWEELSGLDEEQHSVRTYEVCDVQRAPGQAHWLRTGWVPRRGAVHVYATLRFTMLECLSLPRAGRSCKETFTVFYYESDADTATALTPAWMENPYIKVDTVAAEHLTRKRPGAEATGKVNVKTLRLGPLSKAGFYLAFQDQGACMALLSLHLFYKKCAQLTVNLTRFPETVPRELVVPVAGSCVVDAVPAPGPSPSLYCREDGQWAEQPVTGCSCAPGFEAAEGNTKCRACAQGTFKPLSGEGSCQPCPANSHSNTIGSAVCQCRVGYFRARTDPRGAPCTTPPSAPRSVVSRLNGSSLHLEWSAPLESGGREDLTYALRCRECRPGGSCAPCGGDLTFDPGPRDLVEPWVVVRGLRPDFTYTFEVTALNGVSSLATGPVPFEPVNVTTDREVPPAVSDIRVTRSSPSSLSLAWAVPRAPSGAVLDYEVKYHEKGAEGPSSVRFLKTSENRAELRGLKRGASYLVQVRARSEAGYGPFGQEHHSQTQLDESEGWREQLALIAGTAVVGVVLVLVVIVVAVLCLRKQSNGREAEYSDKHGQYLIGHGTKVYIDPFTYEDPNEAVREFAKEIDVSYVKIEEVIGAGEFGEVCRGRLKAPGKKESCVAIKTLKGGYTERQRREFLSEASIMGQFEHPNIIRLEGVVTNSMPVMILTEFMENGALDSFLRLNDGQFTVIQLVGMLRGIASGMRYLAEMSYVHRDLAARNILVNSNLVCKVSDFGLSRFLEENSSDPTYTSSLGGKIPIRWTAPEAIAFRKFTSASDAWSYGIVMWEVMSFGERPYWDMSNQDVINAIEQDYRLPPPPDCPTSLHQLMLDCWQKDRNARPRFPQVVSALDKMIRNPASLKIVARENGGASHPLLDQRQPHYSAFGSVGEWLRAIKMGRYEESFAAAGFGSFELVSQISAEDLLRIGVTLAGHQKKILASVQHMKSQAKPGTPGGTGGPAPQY
Description: Millipore: Percentage of residual kinase activity of EPHB4 at 10uM relative to control. Control inhibitor: PP2 at 30.0uM. Buffer: 8 mM MOPS pH 7.0, 0.2 mM EDTA, 10 mM MnCl2

Record excerpt, results attached:
# compound, measurement
measured = [
    ("CC(C)(C)c1cc(C=C(C#N)C#N)cc(Br)c1O", "110%"),
    ("COc1ccc2c(c[n+](C)c3c4cc5c(cc4ccc23)OCO5)c1OC", "119%"),
    ("C[S+]([O-])c1ccc(-c2nc(-c3ccc(F)cc3)c(-c3ccncc3)[nH]2)cc1 (configuration not stated)", "41%"),
    ("COc1cc2ncnc(Nc3ccc(OCc4ccccc4)cc3)c2cc1OC", "132%"),
    ("O=C1Nc2ccc3ncsc3c2/C1=C/c1c[nH]cn1", "29%"),
    ("O=C1c2ccccc2-c2nc3nnnn3nc21", "115%"),
    ("CCn1cnc2c(Nc3cccc(Cl)c3)nc(N[C@@H]3CCCC[C@@H]3N)nc21", "9%"),
    ("CCc1nc(-c2ccc(OC)cc2)[nH]c1-c1ccncc1", "101%"),
]

# return residual activity of `O=c1[nH]c2ccccc2n1C1CCN(Cc2ccc(-c3nc4cc5[nH]cnc5cc4nc3-c3ccccc3)cc2)CC1` (system: Ephrin type-B receptor 4 (Homo sapiens) (UniProt P54760))
117%

# return residual activity of `COC(=O)[C@@]1(O)C[C@H]2O[C@]1(C)n1c3ccccc3c3c4c(c5c6ccccc6n2c5c31)C(=O)NC4` (system: Ephrin type-B receptor 4 (Homo sapiens) (UniProt P54760))
22%

# return residual activity of `N/C(=N\[N+](=O)[O-])N/N=C\c1ccc(-c2cccc([N+](=O)[O-])c2)o1` (system: Ephrin type-B receptor 4 (Homo sapiens) (UniProt P54760))
90%

# return residual activity of `O=[N+]([O-])/C=C/c1ccc2c(c1)OCO2` (system: Ephrin type-B receptor 4 (Homo sapiens) (UniProt P54760))
127%
